biological target: CDK1/CyclinB1 (Homo sapiens (Human), UniProt P06493); assay: CDK1 kinase assay (TR-FRET); conditions: CDK1/CyclinB 7.5 nM, ATP 17 μM
Sequence (P06493 whole entry): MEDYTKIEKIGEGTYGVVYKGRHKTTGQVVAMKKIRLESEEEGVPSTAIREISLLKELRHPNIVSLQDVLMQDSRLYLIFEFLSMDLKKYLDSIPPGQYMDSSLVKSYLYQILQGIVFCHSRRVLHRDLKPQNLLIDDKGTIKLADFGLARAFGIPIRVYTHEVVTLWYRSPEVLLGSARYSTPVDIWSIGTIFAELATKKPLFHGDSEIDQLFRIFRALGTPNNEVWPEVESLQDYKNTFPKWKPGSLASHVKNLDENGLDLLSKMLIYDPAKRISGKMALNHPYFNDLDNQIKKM
Sequence (P14635 whole entry partner): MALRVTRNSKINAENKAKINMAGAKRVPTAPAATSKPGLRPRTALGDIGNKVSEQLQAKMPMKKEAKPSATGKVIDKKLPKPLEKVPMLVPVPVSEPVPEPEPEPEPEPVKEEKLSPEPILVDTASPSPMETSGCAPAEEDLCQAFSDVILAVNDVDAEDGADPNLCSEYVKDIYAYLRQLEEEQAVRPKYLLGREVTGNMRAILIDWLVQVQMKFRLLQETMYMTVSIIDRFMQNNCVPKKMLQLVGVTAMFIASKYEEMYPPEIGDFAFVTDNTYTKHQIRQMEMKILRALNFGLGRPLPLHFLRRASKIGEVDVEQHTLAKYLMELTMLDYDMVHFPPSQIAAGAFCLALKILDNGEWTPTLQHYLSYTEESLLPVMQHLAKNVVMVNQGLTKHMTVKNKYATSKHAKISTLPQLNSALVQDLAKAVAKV
Recorded IC50 values for a group of compounds are listed next.
Answer format: value, then unit.

Example entries and their recorded answers appear below.
CC(C)NC(=O)O[C@@H]1CC[C@H](c2cc(NC(=O)C34CC(C(=O)NO)(C3)C4)n[nH]2)C1 :: 142 nM
CC(C)NC(=O)O[C@@H]1CC[C@H](c2cc(NC(=O)C3CC(C)N(S(C)(=O)=O)C3)n[nH]2)C1 (single isomer, unassigned) :: 60.9 nM
C#CC1(NC(=O)O[C@H]2CO[C@@H](c3cc(NC(=O)c4ccnn4C)n[nH]3)C2)CCC1 :: 58.6 nM
Cn1nccc1C(=O)Nc1cc([C@H]2CC[C@@H](OC(=O)NC3COC4(CCC4)C3)C2)[nH]n1 (single isomer, unassigned) :: 255 nM
CC[C@H](C)NC(=O)O[C@@H]1CC[C@H](c2cc(NC(=O)[C@H]3C[C@@H]3COC)n[nH]2)C1 :: 118 nM

Problem: Entry under review: CC[C@H](C)NC(=O)O[C@@H]1CO[C@H](c2cc(NC(=O)c3ccnn3C)n[nH]2)C1 . Reported IC50?
Result: 74.8 nM

Problem: Now this one: CC1(NC(=O)OC2COC(c3cc(NC(=O)Cc4cc(F)cc(F)c4)n[nH]3)C2)CCOC1 (centres unmarked) [Compound 53]
Result: 134 nM

Problem: Now this one: O=C(NC12CC(F)(C1)C2)O[C@@H]1CC[C@H](c2cc(NC(=O)[C@@H]3CCN(S(=O)(=O)C4CC4)C3)n[nH]2)C1
Result: 34.4 nM

Problem: Now this one: CC1(NC(=O)OC2COC(c3cc(NC(=O)Cc4cc(F)cc(F)c4)n[nH]3)C2)CCOC1 (centres unmarked) [Compound 52]
Result: 111 nM

Hello, the source for this data is patent US20250195475A1, in case you need it.
